- Test system: PDE I
- assay-summary: PDE subtype profile: inhibition of isolated PDE isozyme
- Format: biochemical
- setup-conditions: PDE I aus Rinder-Aorta; 0,2 µM [3H] cyclisches GMP
reported-endpoint: IC50 (nM)

>>> reported_value("CCc1nc(C)cn1-c1nc(C(C)C)c2[nH]c(=O)c3c(C)nc(CC)n3c2n1")
5.8

---

- tested-target: PDE V (Bos taurus)
- Construct: Die PDE-lsozyme wurden aus den folgenden Quellen isoliert
- assay-summary: PDE subtype profile: inhibition of isolated PDE isozyme
- setup-conditions: PDE V aus Rinder-Aorta
reported-endpoint: IC50

>>> reported_value("CCc1nc(C)cn1-c1nc(C(C)C)c2[nH]c(=O)c3c(C)nc(CC)n3c2n1")
"35 nM"

---

- Tested on: cavernosalen glatten Muskulatur
- assay-summary: Organ bath contraction study with corpus cavernosum strips (phenylephrine-induced contraction)
- Design: species or system Kaninchen
- setup-conditions: Phenylephrin 10 µM; Indomethacin 10^-5 M; Fig. 1 (Kaninchen, and tissue of impotent patients); read-out: IC50-Wert für die Inhibierung der Phenylephrin-induzierten Kontraktion
reported-endpoint: IC50

>>> reported_value("CCc1nc(C)cn1-c1nc(C(C)C)c2[nH]c(=O)c3c(C)nc(CC)n3c2n1")
"~1000 nM"
